Please go through the items and note down their INHIBITION.
System: Plasmodium berghei
Assay: Screen against P. berghei liver stage (PbLuc), transformed with Luciferase, at 2uM
Assay type: functional, HepG2
Details: tested at 2 uM
Screen size: about 68,000 compounds; about 2,700 (4%) showed an effect of 50% or more. This excerpt belongs to a sample that is enriched for strong results.
Please give a number only; it is taken to be in %.

Plasmodium berghei / INHIBITION / Cc1ccc(CN2CCn3cc(CN4CCN(C)CC4)nc3C2)cc1 : value?
18.32

// fetch Plasmodium berghei INHIBITION for COc1cc(C(C)NCc2ncccc2C)ccc1SC(F)F (configuration not stated)
-48.24

So what INHIBITION did O=C1CC(c2ccncc2)C2(CCN(CC3CC3)CC2)N1 (configuration not stated) get with Plasmodium berghei?
22.2

Enter reported INHIBITION observed with Plasmodium berghei for CCC(NC(=O)c1ccc2[nH]ccc2c1)C(=O)N1CCOCC1 (configuration not stated)
5.98

// fetch Plasmodium berghei INHIBITION for CN1CCN(Cc2cn3c(n2)CN(Cc2cccnc2)CC3)CC1
-59.73

Identify the measured INHIBITION of Cc1ccc(NC(=O)Cn2ccc3c(=O)n(C)ccc32)cc1F for Plasmodium berghei.
41.86

Lab note: need INHIBITION with Plasmodium berghei for entry CCN(CCC(F)(F)F)S(=O)(=O)c1cccc(F)c1C#N , please look it up.
-46.3

Requested read-out INHIBITION, target or system Plasmodium berghei, entry Cn1ccc2c(ccn2CC(=O)Nc2ccc(Br)cc2)c1=O
0.5

Tell me reported INHIBITION for c1c(CN2CCCCC2)nc2n1CCN(CC1CC1)C2 , tested with Plasmodium berghei.
7.13

Form entry - test system: Plasmodium berghei; read-out: INHIBITION; molecule: Cc1cc(C)n2c(CCCNS(=O)(=O)c3ccc(F)cc3)nnc2n1
6.62

Could you share what INHIBITION was measured for Nc1cc2c(nn1)CCN(C(=O)CC1CCCCC1)C2 , tested on Plasmodium berghei?
38.76

Write down the reported INHIBITION of COc1ccc(NC(=O)Cn2ccc3c(=O)n(C)ccc32)cc1OC , test system: Plasmodium berghei.
52.61
